Target: Neurogenic locus notch homolog protein 3 (Homo sapiens) (UniProt Q9UM47)
Sequence (Q9UM47 whole entry, looked up): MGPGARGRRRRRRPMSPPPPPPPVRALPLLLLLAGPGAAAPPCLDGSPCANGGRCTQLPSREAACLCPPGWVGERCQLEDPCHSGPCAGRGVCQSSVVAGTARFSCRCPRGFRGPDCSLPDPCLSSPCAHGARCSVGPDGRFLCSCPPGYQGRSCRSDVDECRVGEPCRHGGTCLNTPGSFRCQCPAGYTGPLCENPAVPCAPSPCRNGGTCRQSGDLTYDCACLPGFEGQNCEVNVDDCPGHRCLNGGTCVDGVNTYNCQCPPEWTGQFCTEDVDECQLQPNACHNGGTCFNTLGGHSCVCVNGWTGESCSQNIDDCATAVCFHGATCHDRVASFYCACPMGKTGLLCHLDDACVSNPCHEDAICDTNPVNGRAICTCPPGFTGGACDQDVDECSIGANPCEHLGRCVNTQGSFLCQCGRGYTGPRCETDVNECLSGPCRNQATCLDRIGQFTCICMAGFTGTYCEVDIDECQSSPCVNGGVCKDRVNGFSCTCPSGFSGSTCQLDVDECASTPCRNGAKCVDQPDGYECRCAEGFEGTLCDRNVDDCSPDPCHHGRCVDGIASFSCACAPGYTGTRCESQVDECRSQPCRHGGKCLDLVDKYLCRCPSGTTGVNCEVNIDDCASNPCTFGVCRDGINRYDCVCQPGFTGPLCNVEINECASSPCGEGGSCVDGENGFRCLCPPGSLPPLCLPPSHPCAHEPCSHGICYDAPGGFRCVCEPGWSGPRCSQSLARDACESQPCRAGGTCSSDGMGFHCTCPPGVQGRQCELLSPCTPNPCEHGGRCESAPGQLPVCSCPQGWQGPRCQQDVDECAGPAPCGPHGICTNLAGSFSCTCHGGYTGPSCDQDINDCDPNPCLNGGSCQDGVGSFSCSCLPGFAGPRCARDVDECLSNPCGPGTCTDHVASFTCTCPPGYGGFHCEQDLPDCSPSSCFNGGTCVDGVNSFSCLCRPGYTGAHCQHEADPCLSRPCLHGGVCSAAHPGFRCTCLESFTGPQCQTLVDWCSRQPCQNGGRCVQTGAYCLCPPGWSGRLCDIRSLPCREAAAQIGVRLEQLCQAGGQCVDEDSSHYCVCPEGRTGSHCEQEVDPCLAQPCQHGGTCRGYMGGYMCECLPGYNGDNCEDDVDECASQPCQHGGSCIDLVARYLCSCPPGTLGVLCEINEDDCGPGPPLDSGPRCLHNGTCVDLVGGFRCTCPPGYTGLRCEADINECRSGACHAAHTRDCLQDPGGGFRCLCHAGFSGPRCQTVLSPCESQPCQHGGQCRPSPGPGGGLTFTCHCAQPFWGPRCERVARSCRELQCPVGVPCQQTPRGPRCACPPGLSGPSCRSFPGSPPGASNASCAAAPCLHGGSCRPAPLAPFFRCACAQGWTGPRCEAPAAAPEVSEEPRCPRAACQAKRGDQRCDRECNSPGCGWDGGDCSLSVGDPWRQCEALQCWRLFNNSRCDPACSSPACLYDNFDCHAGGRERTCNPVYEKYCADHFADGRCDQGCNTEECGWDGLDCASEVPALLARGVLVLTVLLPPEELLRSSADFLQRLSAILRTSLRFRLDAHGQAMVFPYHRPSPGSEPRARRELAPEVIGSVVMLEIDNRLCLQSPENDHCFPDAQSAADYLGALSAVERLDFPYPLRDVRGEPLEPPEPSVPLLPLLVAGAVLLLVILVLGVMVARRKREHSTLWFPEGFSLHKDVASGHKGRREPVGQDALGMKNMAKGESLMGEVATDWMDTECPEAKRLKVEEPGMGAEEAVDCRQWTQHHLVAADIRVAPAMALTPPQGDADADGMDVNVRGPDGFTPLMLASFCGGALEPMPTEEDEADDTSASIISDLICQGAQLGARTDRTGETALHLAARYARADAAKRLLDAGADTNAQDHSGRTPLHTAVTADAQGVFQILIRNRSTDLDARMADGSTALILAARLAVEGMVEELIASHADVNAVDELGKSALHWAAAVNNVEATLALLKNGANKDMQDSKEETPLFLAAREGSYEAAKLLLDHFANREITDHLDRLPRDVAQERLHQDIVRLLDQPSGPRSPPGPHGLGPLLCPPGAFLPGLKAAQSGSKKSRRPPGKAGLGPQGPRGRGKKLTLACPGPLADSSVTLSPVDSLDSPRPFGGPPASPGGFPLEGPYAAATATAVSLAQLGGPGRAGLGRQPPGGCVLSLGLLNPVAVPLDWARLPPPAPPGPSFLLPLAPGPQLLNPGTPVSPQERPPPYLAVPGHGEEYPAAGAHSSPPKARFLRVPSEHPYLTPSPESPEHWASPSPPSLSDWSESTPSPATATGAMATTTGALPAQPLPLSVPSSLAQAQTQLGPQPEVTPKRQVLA
Experiment: NOTCH3 binders on small-molecule microarray, primary screen, biochemical, 635/667 nm fluorescence (AID 1096)
Conditions: NOTCH3 binding, 635 nm fluorescence, higher = more signal
# composite z-score >= -0.1 gives Yes, anything below gives No

Consider the following illustrative entries.
q: Determine whether measured composite z-score meets or exceeds -0.1 for O=C1OCC=C[C@H]2OC34C=CCN(Cc5ccccc5)C(=O)[C@H]3N(CCO)C(=O)[C@@H]4[C@@H]12 (stereo partly specified)
a: No

q: Reported composite z-score at or above -0.1? C=CCNC(=O)[C@H]1[C@@H]2C(=O)O[C@@H](c3ccccc3)[C@@H](c3ccccc3)N2[C@@H](c2ccc(O)cc2)[C@]12C(=O)Nc1ccc(C#CCNC(N)=O)cc12
a: No

q: Record C[C@]1(C(=O)NCc2ccccc2)c2ccccc2C(=O)N(Cc2cc(C(F)(F)F)cc(C(F)(F)F)c2)[C@H]1c1ccc(CO)cc1 ; criterion: composite z-score no lower than -0.1. Met?
a: Yes

q: // inclusive: composite z-score at least -0.1? input: NC(=O)NCC#Cc1ccc2c(c1)[C@]1(C(=O)N2)[C@H](C(=O)N2CCCCCCC2)[C@H]2C(=O)O[C@H](c3ccccc3)[C@H](c3ccccc3)N2[C@@H]1c1ccccc1OCCO
a: Yes

q: Would you say O=C(NCC(O)CO)[C@]1(Cc2ccccc2)N=C(c2ccc(OCCCO)cc2)O[C@@H]1c1ccccc1 (stereo partly specified) shows composite z-score at minimum -0.1?
a: Yes

Read the next record carefully.
q: Does O=C1O[C@H](c2ccccc2)[C@H](c2ccccc2)N2[C@H]1[C@@H](C(=O)Nc1nc3ccccc3s1)[C@]1(C(=O)Nc3ccc(C#CC4(O)CCCCCC4)cc31)[C@H]2c1ccc(O)cc1 have a reported composite z-score of at least -0.1?
a: Yes

###

Target: E3 ubiquitin-protein ligase XIAP (Homo sapiens)
Assay: XIAP binders, primary screen, biophysical, small-molecule microarray, fluorescence 635 nm (AID 1181);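 also: score merges 667 nm emission and signal to noise over triplicate slides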
Conditions: small-molecule microarray binding, higher = more signal
Property: composite z-score
In your answer, state the number alone without any accompanying words.

Known results for molecules:
Input C=CCNC(=O)[C@H]1[C@@H]2C(=O)O[C@@H](c3ccccc3)[C@@H](c3ccccc3)N2[C@@H](c2ccccc2OCCO)[C@]12C(=O)N(C(=O)OCCOC)c1ccc(C#CCC(C(=O)OC)C(=O)OC)cc12 . Output composite z-score: 0.182

Form field composite z-score, entry CC[C@@H]1C=C(C(=O)O)[C@H](c2ccccc2)N1S(=O)(=O)c1ccc([N+](=O)[O-])cc1 : 0.101

The molecule listed as O=C1OCC=C[C@H]2OC34C=CCN(Cc5ccccc5)C(=O)[C@H]3N(CCCCCO)C(=O)[C@@H]4[C@@H]12 (some centres not stated) shows composite z-score equal to 0.101

Data point: O=[N+]([O-])c1ccc(C[n+]2ccc3ccc(O)cc3c2)o1 ; composite z-score = 0.411

C=C(CCCC)C(=O)CC[C@@H](OC(=O)c1cccnc1)c1cccc(OCCO)c1 yielded composite z-score of -0.104

Reported composite z-score ( [N-]=[N+]=NCc1ccccc1C[C@@]1(C(=O)O)N=C(c2ccc(OCCCO)cc2)O[C@@H]1c1ccccc1N=[N+]=[N-] ) = 0.0524

Now, please, on to the next molecule.
Sure, the documented composite z-score for C=CCNC(=O)[C@H]1[C@@H]2C(=O)O[C@@H](c3ccccc3)[C@@H](c3ccccc3)N2[C@@H](c2ccc(O)cc2)[C@]12C(=O)Nc1ccc(C#CCNC(N)=O)cc12 is 0.0223
